Catalogue of sequences with associated PBM binding z-score
System: PPARg:RXRa 30nM:10nM, anti-RXR (NR concentration 30 nM, RXRa partner concentration 10 nM)
Assay: PBM binding z-score (relative to random genomic background probes); higher = stronger binding; sequences stand for … in GC…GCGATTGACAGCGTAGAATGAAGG
Please give the numeric answer without any surrounding text.

Example entries begin here.
Challenge: # input sequence: CCTGCTAGGTCATGGTCAGCTACTCTACAGTATG ; wanted: its PBM binding z-score
Response given: 0.637

Challenge: Returns the measured PBM binding z-score for the input sequence. Input: GCTCGTTGGTCAGTAAAAGGTCACACACCGGTCG
Response given: 2.81

Challenge: State the recorded PBM binding z-score for this entry: TCTATTAGTTGATTAGGGGAACCGAAACAGCGGA
Response given: 4.11

Challenge: Recorded PBM binding z-score of GCTGTTAGTTGAAAGGGCAACCGAATGATTCTCG , please.
Response given: 0.9

Challenge: I am curious: what PBM binding z-score value has been reported for GATCCAGGGTCAAGGCCAGAGTACGCGTATTGAT ?
Response given: 2.2

Challenge: # query: PBM binding z-score of entry CCTAGGTGGTCAGGAGGTCACACACCGGATATGA
Response given: 1.29

Challenge: Need PBM binding z-score of ATATGTAGGTAATCGGGTCATTCAGTTTGCGCAT , thanks.
Response given: 3.33

Further cases:
Challenge: May I ask what PBM binding z-score has been recorded for CCTAGTTGGTCAAAGTCACACACGCTATAGGTAC ?
Response given: 0.915
